# tgt: T1, PSMA (Homo sapiens, UniProt Q04609)
# T1 construct: purified extracellular domain of PSMA [residues 44-750; purchased from Caltech Protein Expression Center, CA]; purchased Caltech Protein Expression Center, CA
# method_description: Small-angle X-ray scattering of PSMA-NB complexes
# experimental_context: PSMA + NB, method GNOM
recorded_endpoint: Dmax (Å)
Just the number in Å, nothing appended.

Example results:
>>> data_value("NB37: anti-PSMA camel nanobody (VHH, ~16 kDa) selected by phage display; PDB 6XXP (protein) VHH: QVQLQESGGGSVEAGGSLRLSCARSGWPYSTYSMNWFRQAPGKEREAVAGISSTMSGIIFAESKAGQFTISQDNAKNTVYLQMNNLKPEDTAIYYCAARRDYSLSSSSDDFDYWGQGTQVTVSSAAAYPYDVPDYGS")
110
>>> data_value("NB13: anti-PSMA camel nanobody (VHH, ~16 kDa) selected by phage display (protein) VHH: QVQLQESGGGSVQTGGSLRLSCAASGYTASFSWIGYFRQAPGKEREGVAVINVGVGSTYYADSVKGRFTISRDNTENTISLEMNSLKPEDTGLYYCAGSLRWSRPPNPISEDAYNYWGQGTQVTVSSAAAYPYDVPDYGS")
120
>>> data_value("NB7: anti-PSMA camel nanobody (VHH, ~16 kDa) selected by phage display; PDB 6XXN (protein) VHH: QVQLQESGGGSVQAGGSLRLSCTAPGYTDSNYYMSWFRQAPGKEREWVAGVNTGRGSTSYADSVKGRFTISQDNAKNTMFLQMNSLKPEDTAIYYCAVAACHFCDSLPKTQDEYILWGQGTQVTVSSAAAYPYDVPDYGS")
120

Recorded Dmax of NB8: anti-PSMA camel nanobody (VHH, ~16 kDa) selected by phage display; PDB 6XXO (protein) VHH: QVQLQESGGGSVQAGGSLRLSCARSGWPYSTYSMNWFRQAPGKEREAVAGISSTMSGIIFAESKAGQFTISQDNAKNTVYLQMNNLKPEDTAIYYCAARRDYSLSSSSDDFDYWGQGTQVTVSSAAAYPYDVPDYGS , please.
100
